Assay: intrinsic fluorescence of library compounds, ex339/em460 – biochemical, MLSMR library, data from DPM-DC assay, artefact control, profiling panel (AID 709);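 also: signal is the first read of a kinetic run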
Details: compound autofluorescence, ex339/em460 nm, NADH buffer; at 10 µM; 1 = no-compound wells, NADH background
Screen size: about 65,000 compounds; about 3,600 (5.5%) were called active.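 The calls were made as follows: active = at 10 µM, mean starting fluorescence two-fold or more over control wells; inactive = the rest.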 The entries come from a sample that favours actives as a whole.
In this exercise, the only acceptable responses are true = active, false = inactive

Study these solved cases before continuing.
INSERT INTO measurements (compound, class_name) VALUES
  ('O=c1c2ccccc2oc2nc(C3CCCCC3)n(Cc3ccco3)c(=O)c12', 'false'),
  ('Cc1cccc(N=C2NC(=O)CS2)c1C', 'false'),
  ('Cc1ccc(Cn2c(C)nc3c(c2=O)c2nc4ccccc4nc2n3Cc2ccco2)cc1', 'true');

I would be grateful if you could indicate the recorded call for COC(=O)COc1ccc2oc(=O)cc(C)c2c1 .
true

I would be grateful if you could indicate the recorded call for Cc1ccc2nc(-c3ccccc3)cc(C(=O)O)c2c1 .
false

I would be grateful if you could indicate the recorded call for CCCCOc1ccc(-c2ncc(C(=O)OCC)c(N)n2)cc1 .
false

I would be grateful if you could indicate the recorded call for Cc1nc2ccccc2c(=O)n1CCCn1ccnc1 .
false

I would be grateful if you could indicate the recorded call for Cc1cc(=O)oc(C)c1C(=O)Nc1cnc2ccccc2c1 .
false

I would be grateful if you could indicate the recorded call for Cc1cc(C(=O)CC#N)c(C)n1CC(F)(F)F .
false

I would be grateful if you could indicate the recorded call for COc1cccc(NC(=O)CN(C)S(=O)(=O)c2ccc(C)cc2)c1 .
false

I would be grateful if you could indicate the recorded call for O=C(NCc1ccccn1)Nc1ccc(F)cc1 .
false

I would be grateful if you could indicate the recorded call for O=C(CCN1C(=O)c2ccccc2C1=O)NCCN1CCOCC1 .
false

I would be grateful if you could indicate the recorded call for COc1cccc(-c2nnc(NC(=O)c3ccc(S(=O)(=O)N(CC(C)C)CC(C)C)cc3)o2)c1 .
true

I would be grateful if you could indicate the recorded call for Cc1nc2c(c(=O)n1Cc1ccco1)c1nc3ccccc3nc1n2Cc1ccccc1 .
true

I would be grateful if you could indicate the recorded call for CC(C)(CNCC(O)c1ccccc1)N1CCOCC1 (stereo not drawn) .
false

I would be grateful if you could indicate the recorded call for COc1ccc(C(=O)NCCc2ccc(S(N)(=O)=O)cc2)cc1OC .
false

I would be grateful if you could indicate the recorded call for COc1ccccc1Oc1ccc(S(=O)(=O)Nc2cccnc2)cc1 .
false

I would be grateful if you could indicate the recorded call for Cc1ccc(NC(=O)c2cc(-c3ccc(C)o3)nc3ccccc23)nc1 .
true
